Experiment: soluble on expression in E. coli; label from the status in PepcDB or PDB records
reported_property: soluble on expression in E. coli

1. MMQMPKIGIIGGSGVYGVFEPKEVVKVHTPYGRPSAPIEIGEIEGVEVAFIPRHGKYHEFPPHQVPYRANIWALHELGVERVIAINAVGSLKEEYKPGDIVIIDQFIDFTKKREYTFYNGPKVAHVSMADPFCPELRKIFIETAKELNLPVHERGTYVCIEGPRFSTRAESRMFRQFADVIGMTLVPEVNLARELGMCYVNISTVTDYDVWAEKPVDAQEVLRVMKENEEKVQKLLKRAIPKIPEERKCGCADVLKTMFV	soluble
2. MSLFKSQTAILPEAGPFALYTLLKVRQNHAHVLQALKALPALVEEINQNQPGAELTVSVAFSKGFWSHFEMASPPELIDFPELGEGETHAPSTDVDVLIHCHATRHDLLFYTLRKGISDIAQDIEIVDETYGFRYLDARDMTGFIDGTENPKAEKRAEVALVADGDFAGGSYVMVQRFVHNLPAWNRLNLAAQEKVIGRTKPDSVELENVPAASHVGRVDIKEEGKGLKIVRHSLPYGSVSGDHGLLFIAYCHTLHNFKTMLESMYGVTDGKTDQLLRFTKAVTGAYFFAPSQVMLQELTLKNQEGGSHHHHHH	soluble
